Provenance of the data: patent US20030148958A1

Biological target: corticotropin releasing factor 1 receptor
Test: cell-based or functional assay
Ends that are not written are not given here.
Task for the reader: assign each of the following binders its reported CRF1R EC50.
One number for each entry, in nM.

Would you please look over these solved cases?
SQEPPISLDLPIQLLREVLEMTKADQLAQQAHSNRKLLDIA-NH2 [SEQ ID NO 100]; 100
DNPSLSIDLPFQLLRTLLELARTQSQRERAEQNAIIFASV-NH2 [SEQ ID NO 182]; 409
ZGPPISIDLPWYLLRKMIEIEKQEKEKQQAANNRLLLDTI (C-terminal amide) [SEQ ID NO 55]; 11.6

# ---- query binder ----
Exercise: CRF1R EC50 for SQEPPISLDLTFHLLREVLEQARARAAREQATTNARILARV-NH2 [SEQ ID NO 157] ?
Solution: 100
